# target_or_system: Cx43 HCs (Homo sapiens, UniProt P17302)
# Construct: expressed in transfected cells
# Sequence (P17302 whole entry): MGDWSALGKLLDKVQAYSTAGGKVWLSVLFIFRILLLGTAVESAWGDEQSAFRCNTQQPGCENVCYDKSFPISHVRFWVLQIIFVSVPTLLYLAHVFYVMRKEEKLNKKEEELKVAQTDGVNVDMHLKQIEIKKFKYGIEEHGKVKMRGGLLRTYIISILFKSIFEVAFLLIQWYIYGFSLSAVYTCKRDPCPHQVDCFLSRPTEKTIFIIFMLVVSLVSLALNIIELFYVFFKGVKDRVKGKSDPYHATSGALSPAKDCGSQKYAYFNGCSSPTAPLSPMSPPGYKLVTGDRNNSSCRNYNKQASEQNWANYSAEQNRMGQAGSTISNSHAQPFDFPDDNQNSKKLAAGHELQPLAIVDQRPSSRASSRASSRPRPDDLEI
# test_description: Cx43-dependent growth complementation assay in E. coli LB2003
# Assay type: cell-based
# details: 15 μM; Table 3; read-out: Cx243% inhibition
quantity_kind: inhibition at 15 µM (%)

Can you share its inhibition at 15 µM? I mean this compound: CCCCCCCC(=O)NCC1O[C@H](OC2C(N)CC(N)C(OC3O[C@H](CO)C(O)C(N)[C@H]3O)[C@H]2O)C(O)C(O)[C@@H]1O (stereo partly shown)
17

Can you share its inhibition at 15 µM? I mean this compound: NCC1O[C@H](OC2C(N)CC(N)C(OC3O[C@H](COc4ccc([N+](=O)[O-])cc4)C(O)C(N)[C@H]3O)[C@H]2O)C(O)C(O)[C@@H]1O (stereo partly shown)
36.5

Can you share its inhibition at 15 µM? I mean this compound: NC1CC(N)C(O[C@H]2OC(CNC(=O)c3cc(-c4ccccc4)nc4ccccc34)[C@@H](O)C(O)C2O)[C@H](O)C1OC1O[C@H](CO)C(O)C(N)[C@H]1O (stereo partly shown)
25.5

Can you share its inhibition at 15 µM? I mean this compound: CCCCCCCCCC(=O)NCC1O[C@H](OC2C(N)CC(N)C(OC3O[C@H](CO)C(O)C(N)[C@H]3O)[C@H]2O)C(O)C(O)[C@@H]1O (stereo partly shown)
44.4

(P) NCC1O[C@H](OC2C(N)CC(N)C(OC3O[C@H](CNC(=O)c4ccccc4-c4c5ccc(=O)cc-5oc5cc(O)ccc45)C(O)C(N)[C@H]3O)[C@H]2O)C(O)C(O)[C@@H]1O (stereo partly shown)
(Q) COc1ccc(OC[C@H]2OC(OC3C(N)CC(N)C(O[C@H]4OC(CN)[C@@H](O)C(O)C4O)[C@@H]3O)[C@H](O)C(N)C2O)cc1 (stereo partly shown)
Sorting by inhibition at 15 µM in descending order, would P or Q appear first? Record your answer as the label of the chosen record.
P

(A) Cc1ccc(S(=O)(=O)OC[C@H]2OC(OC3C(N)CC(N)C(O[C@H]4OC(CN)[C@@H](O)C(O)C4O)[C@@H]3O)[C@H](O)C(N)C2O)cc1 (stereo partly shown)
(B) NCC1O[C@H](OC2C(N)CC(N)C(OC3O[C@H](CO)C(O)C(N)[C@H]3O)C2O)C(O)[C@@H](O)[C@@H]1O (stereo in doubt) [Kanamycin A, reference compound]
Sorting by inhibition at 15 µM in descending order, would A or B appear first? Record your answer as the label of the chosen record.
A

(I) NCC1O[C@H](OC2C(N)CC(N)C(OC3O[C@H](COc4ccccc4)C(O)C(N)[C@H]3O)[C@H]2O)C(O)C(O)[C@@H]1O (stereo partly shown)
(II) NC1CC(N)C(O[C@H]2OC(CNC(=O)c3ccccc3-c3c4ccc(=O)cc-4oc4ccc(O)cc34)[C@@H](O)C(O)C2O)[C@H](O)C1OC1O[C@H](CO)C(O)C(N)[C@H]1O (stereo partly shown)
Compare inhibition at 15 µM: is it lower for I or for II ? Record your answer as the label of the chosen record.
I

====

# target_or_system: Cx43 HCs (Homo sapiens)
# Construct: expressed in transfected cells
# test_description: Cx43-dependent growth complementation assay in E. coli LB2003
# Type: cell-based
# details: the 12th table; Hill fit; mean ± SEM, some n = 1; read-out: Cx43 IC50
quantity_kind: IC50 (µM)

Can you share its IC50? I mean this compound: NCC1O[C@H](O[C@@H]2C(N)C[C@@H](N)C(O[C@H]3OC(COc4ccc(-c5nc6ccccc6[nH]5)cc4)[C@@H](O)C(N)C3O)C2O)C(O)C(O)[C@@H]1O (some centres unmarked)
8.9

(P) COc1ccc(COCC2OC(OC3C(N)CC(N)C(OC4OC(CN)C(O)C(O)C4O)C3O)C(O)C(N)C2OCc2ccc(OC)cc2)cc1 (centres unmarked)
(Q) NCC1OC(OC2C(N)CC(N)C(OC3OC(COCc4cccc5ccccc45)C(OCc4cccc5ccccc45)C(N)C3O)C2O)C(O)C(O)C1O (centres unmarked)
Sorting by IC50 in descending order, would P or Q appear first? Record your answer as the label of the chosen record.
Q

====

# target_or_system: human Cx26 HCs (Homo sapiens, UniProt P29033)
# Construct: expressed in transfected cells; host or cells: E. coli LB2003 (carrying pREP4), transformed with pQE-Cx26, IPTG-induced
# test_description: Cx26-dependent growth complementation assay in E. coli LB2003
# Type: cell-based
# details: 50 μM; Table 3
quantity_kind: inhibition at 50 µM (%)

Can you share its inhibition at 50 µM? I mean this compound: NCC1O[C@H](OC2C(N)CC(N)C(OC3O[C@H](COc4ccccc4)C(O)C(N)[C@H]3O)[C@H]2O)C(O)C(O)[C@@H]1O (stereo partly drawn) [Compound K34]
69.4

(A) COc1ccc(OC[C@H]2OC(OC3C(N)CC(N)C(O[C@H]4OC(CN)[C@@H](O)C(O)C4O)[C@@H]3O)[C@H](O)C(N)C2O)cc1 (stereo partly drawn) [Compound K81]
(B) CCCCCCCC(=O)NCC1O[C@H](OC2C(N)CC(N)C(OC3O[C@H](CO)C(O)C(N)[C@H]3O)[C@H]2O)C(O)C(O)[C@@H]1O (stereo partly drawn) [KI02]
Compare inhibition at 50 µM: is it lower for A or for B ? Record your answer as the label of the chosen record.
B

====

# target_or_system: Cx43 HCs (Homo sapiens, UniProt P17302)
# Construct: expressed in transfected cells
# test_description: Cx43-dependent growth complementation assay in E. coli LB2003
# Type: cell-based
# details: 50 μM; Table 3; read-out: Cx243% inhibition
quantity_kind: inhibition at 50 µM (%)

Can you share its inhibition at 50 µM? I mean this compound: Cc1ccc(S(=O)(=O)OC[C@H]2OC(OC3C(N)CC(N)C(O[C@H]4OC(CN)[C@@H](O)C(O)C4O)[C@@H]3O)[C@H](O)C(N)C2O)cc1 (stereo partly drawn) [Compound K19]
51

Can you share its inhibition at 50 µM? I mean this compound: NC1CC(N)C(O[C@H]2OC(CNC(=O)c3cc(-c4ccccc4)nc4ccccc34)[C@@H](O)C(O)C2O)[C@H](O)C1OC1O[C@H](CO)C(O)C(N)[C@H]1O (stereo partly drawn) [KI08]
51

Can you share its inhibition at 50 µM? I mean this compound: CCCCCCCCCC(=O)NCC1O[C@H](OC2C(N)CC(N)C(OC3O[C@H](CO)C(O)C(N)[C@H]3O)[C@H]2O)C(O)C(O)[C@@H]1O (stereo partly drawn) [KI03]
53.5

====

# target_or_system: Cx43 HCs (Homo sapiens, UniProt P17302)
# Construct: expressed in transfected cells
# test_description: Cx43-dependent growth complementation assay in E. coli LB2003
# Type: cell-based
# details: the 15th table; sub-head and unit inferred; read-out: Cx43 IC50
pIC50: −log10 of the molar value.
quantity_kind: pIC50

Can you share its pIC50? I mean this compound: CCCCCCCCCCCC(=O)NCC1O[C@H](OC2C(N)CC(N)C(OC3O[C@H](CO)C(O)C(N)[C@H]3O)[C@H]2O)C(O)C(O)[C@@H]1O (stereo partly shown)
5.01

Can you share its pIC50? I mean this compound: Cc1ccc(OC[C@H]2OC(OC3C(N)CC(N)C(O[C@H]4OC(CN)[C@@H](O)C(O)C4O)[C@@H]3O)[C@H](O)C(N)C2O)cc1 (stereo partly shown)
5.15

Can you share its pIC50? I mean this compound: NC1CC(N)C(O[C@H]2OC(CNC(=O)CCCc3ccc4ccc5cccc6ccc3c4c56)[C@@H](O)C(O)C2O)[C@H](O)C1OC1O[C@H](CO)C(O)C(N)[C@H]1O (stereo partly shown)
5.07

Can you share its pIC50? I mean this compound: NCC1O[C@H](OC2C(N)CC(N)C(OC3O[C@H](COc4ccc(Cl)cc4)C(O)C(N)[C@H]3O)[C@H]2O)C(O)C(O)[C@@H]1O (stereo partly shown)
5.05

====

# target_or_system: Cx43 HCs (Homo sapiens, UniProt P17302)
# Construct: expressed in transfected cells
# test_description: Cx43-dependent growth complementation assay in E. coli LB2003
# Assay type: cell-based
# details: 50 μM; Table 3; read-out: Cx243% inhibition
quantity_kind: inhibition at 50 µM (%)

The examples below pair each entry with its known result.
Any idea what inhibition at 50 µM came out for CCCCCCCC(=O)NCC1O[C@H](OC2C(N)CC(N)C(OC3O[C@H](CO)C(O)C(N)[C@H]3O)[C@H]2O)C(O)C(O)[C@@H]1O (stereo partly shown) on Cx43 HCs (Homo sapiens, UniProt P17302)?
37.2

Any idea what inhibition at 50 µM came out for NCC1O[C@H](OC2C(N)CC(N)C(OC3O[C@H](COc4ccc([N+](=O)[O-])cc4)C(O)C(N)[C@H]3O)[C@H]2O)C(O)C(O)[C@@H]1O (stereo partly shown) on Cx43 HCs (Homo sapiens, UniProt P17302)?
49.3

Any idea what inhibition at 50 µM came out for NCC1O[C@H](OC2C(N)CC(N)C(OC3O[C@H](CO)C(O)C(N)[C@H]3O)C2O)C(O)[C@@H](O)[C@@H]1O (stereo in doubt) [Kanamycin A, reference compound] on Cx43 HCs (Homo sapiens, UniProt P17302)?
40.4

Any idea what inhibition at 50 µM came out for NCC1O[C@H](OC2C(N)CC(N)C(OC3O[C@H](CNC(=O)c4ccccc4-c4c5ccc(=O)cc-5oc5cc(O)ccc45)C(O)C(N)[C@H]3O)[C@H]2O)C(O)C(O)[C@@H]1O (stereo partly shown) on Cx43 HCs (Homo sapiens, UniProt P17302)?
55.1

Any idea what inhibition at 50 µM came out for COc1ccc(OC[C@H]2OC(OC3C(N)CC(N)C(O[C@H]4OC(CN)[C@@H](O)C(O)C4O)[C@@H]3O)[C@H](O)C(N)C2O)cc1 (stereo partly shown) on Cx43 HCs (Homo sapiens, UniProt P17302)?
34.8

(1) NCC1O[C@H](OC2C(N)CC(N)C(OC3O[C@H](COc4ccccc4)C(O)C(N)[C@H]3O)[C@H]2O)C(O)C(O)[C@@H]1O (stereo partly shown)
(2) NC1CC(N)C(O[C@H]2OC(CNC(=O)c3ccccc3-c3c4ccc(=O)cc-4oc4ccc(O)cc34)[C@@H](O)C(O)C2O)[C@H](O)C1OC1O[C@H](CO)C(O)C(N)[C@H]1O (stereo partly shown)
Compare inhibition at 50 µM: is it lower for 1 or for 2 ? Record your answer as the label of the chosen record.
1
(1: 46.7%, 2: 83.4%)
